# Tested on: Staphylococcus aureus
# Measurement Description: Antibacterial activity against Staphylococcus aureus MTCCB 737 after 18-20 hrs by broth dilution method
# Assay type: functional
Parameter: MIC (µg/mL)
The reply should be a number in µg/mL, with the unit left off.

Lab book: MIC of N#CCCN1CCN(CCO)CC1 noted as 19.5

Recorded result, CN1CCN(CCC#N)CC1 , MIC: 310

Sample N#CCN1CCN(Cc2ccccc2)CC1 ; MIC observed: 19.5

###

# System: Aspergillus fumigatus
# Measurement Description: Antifungal activity against Aspergillus fumigatus ITCC 4517 by micro-broth dilution method
# Type: functional
Parameter: MIC (µg/mL)
Respond numerically; units are µg/mL and should not be typed.

Reference set, count: 3
{"Structure As Smiles": "N#CCN1CCN(c2ccccc2)CC1", "Tested System": "Aspergillus fumigatus", "MIC / µg/mL": 500}
{"Structure As Smiles": "C[C@@H]1[C@H](O)[C@@H](C)/C=C/C=C/C=C/C=C/C=C/C=C/C=C/[C@H](O[C@@H]2O[C@H](C)[C@@H](O)[C@H](N)[C@@H]2O)C[C@@H]2O[C@](O)(C[C@@H](O)C[C@@H](O)[C@H](O)CC[C@@H](O)C[C@@H](O)CC(=O)O[C@H]1C)C[C@H](O)[C@H]2C(=O)O", "Tested System": "Aspergillus fumigatus", "MIC / µg/mL": 5}
{"Structure As Smiles": "COc1ccccc1N1CCN(CCC#N)CC1", "Tested System": "Aspergillus fumigatus", "MIC / µg/mL": 500}

Simply: N#CCCN1CCN(c2ccccc2)CC1 , Aspergillus fumigatus, MIC = 250

Item CN1CCN(CC#N)CC1 was tested on Aspergillus fumigatus; the reported MIC is 500
